- Tested on: Staphylococcus aureus
- assayComment: Antibacterial activity against Staphylococcus aureus NCTC 13616 assessed as reduction in bacterial growth incubated for 20 hrs by microplate reader method
- Format: functional
MIC overview

{"itemSmiles": "NCC(=O)NC[C@H]1CN(c2ccc(N3CCOCC3)c(F)c2)C(=O)O1", "MIC": "> 128 µg/mL"}

Which value of MIC has been reported for "O=C(NC[C@H]1CN(c2ccc(N3CCOCC3)c(F)c2)C(=O)O1)[C@@H]1CCNC1" in the records?
> 128 µg/mL

Please answer likewise for "O=C(Cc1cccc2ccccc12)NC[C@H]1CN(c2ccc(N3CCOCC3)c(F)c2)C(=O)O1"
> 128 µg/mL

###

- Tested on: Enterococcus faecium
- assayComment: Antibacterial activity against Vanomycin-resistant Enterococcus faecium NCTC 12204 assessed as reduction in bacterial growth incubated for 20 hrs by microplate reader method
- Type: functional
outcomeMeasure: MIC (µg/mL)
Lab book: enter the figure in µg/mL, no units written.

Field: example entries. Status: answers known.
{"itemSmiles": "O=C(NC[C@H]1CN(c2ccc(N3CCOCC3)c(F)c2)C(=O)O1)c1ccsc1", "MIC [µg/mL]": 8}
{"itemSmiles": "CC(C)C(=O)NC[C@H]1CN(c2ccc(N3CCOCC3)c(F)c2)C(=O)O1", "MIC [µg/mL]": 8}
{"itemSmiles": "O=C(NC[C@H]1CN(c2ccc(N3CCOCC3)c(F)c2)C(=O)O1)c1cncs1", "MIC [µg/mL]": 16}
{"itemSmiles": "O=C(NC[C@H]1CN(c2ccc(N3CCOCC3)c(F)c2)C(=O)O1)c1cnccn1", "MIC [µg/mL]": 64}
{"itemSmiles": "O=C(NC[C@H]1CN(c2ccc(N3CCOCC3)c(F)c2)C(=O)O1)c1cc2ncccc2o1", "MIC [µg/mL]": 16}

Which value of MIC has been reported for "O=C(NC[C@H]1CN(c2ccc(N3CCOCC3)c(F)c2)C(=O)O1)c1cnc(Br)s1" in the records?
8

Please answer likewise for "Cc1nc(Br)sc1C(=O)NC[C@H]1CN(c2ccc(N3CCOCC3)c(F)c2)C(=O)O1"
32

Please answer likewise for "O=C(Cc1cccc2ccccc12)NC[C@H]1CN(c2ccc(N3CCOCC3)c(F)c2)C(=O)O1"
64

Please answer likewise for "NCC(=O)NC[C@H]1CN(c2ccc(N3CCOCC3)c(F)c2)C(=O)O1"
32

Please answer likewise for "CC(=O)NC[C@H]1CN(c2ccc(N3CCOCC3)c(F)c2)C(=O)O1"
2

Please answer likewise for "CCC(=O)NC[C@H]1CN(c2ccc(N3CCOCC3)c(F)c2)C(=O)O1"
4

###

MIC overview
- Tested on: Enterococcus faecalis
- assayComment: Antibacterial activity against Vanomycin-sensitive Enterococcus faecalis NCTC 775 assessed as reduction in bacterial growth incubated for 20 hrs by microplate reader method
- Type: functional
Lab book: enter the figure in µg/mL, no units written.

Field: example entries. Status: answers known.
{"itemSmiles": "O=C(NC[C@H]1CN(c2ccc(N3CCOCC3)c(F)c2)C(=O)O1)c1cnco1", "outcomeMeasure": "MIC", "numericValue": 64}
{"itemSmiles": "CCC(=O)NC[C@H]1CN(c2ccc(N3CCOCC3)c(F)c2)C(=O)O1", "outcomeMeasure": "MIC", "numericValue": 4}
{"itemSmiles": "Cc1ncsc1C(=O)NC[C@H]1CN(c2ccc(N3CCOCC3)c(F)c2)C(=O)O1", "outcomeMeasure": "MIC", "numericValue": 32}
{"itemSmiles": "O=C(NC[C@H]1CN(c2ccc(N3CCOCC3)c(F)c2)C(=O)O1)c1cc[nH]c1", "outcomeMeasure": "MIC", "numericValue": 32}
{"itemSmiles": "O=C(NC[C@H]1CN(c2ccc(N3CCOCC3)c(F)c2)C(=O)O1)c1cncs1", "outcomeMeasure": "MIC", "numericValue": 16}
{"itemSmiles": "NCC(=O)NC[C@H]1CN(c2ccc(N3CCOCC3)c(F)c2)C(=O)O1", "outcomeMeasure": "MIC", "numericValue": 64}

Which value of MIC has been reported for "O=C(NC[C@H]1CN(c2ccc(N3CCOCC3)c(F)c2)C(=O)O1)C1CC=CC1" in the records?
16

Please answer likewise for "O=C(NC[C@H]1CN(c2ccc(N3CCOCC3)c(F)c2)C(=O)O1)c1cc2ncccc2o1"
16

Please answer likewise for "O=C(NC[C@H]1CN(c2ccc(N3CCOCC3)c(F)c2)C(=O)O1)c1cnccn1"
64

Please answer likewise for "O=C(NC[C@H]1CN(c2ccc(N3CCOCC3)c(F)c2)C(=O)O1)c1cnc(Br)s1"
32

Please answer likewise for "O=C(NC[C@H]1CN(c2ccc(N3CCOCC3)c(F)c2)C(=O)O1)C1CC1"
8

Please answer likewise for "O=C(NC[C@H]1CN(c2ccc(N3CCOCC3)c(F)c2)C(=O)O1)C1CCC1"
16

###

MIC overview
- Test system: Enterococcus faecium
- assayComment: Antibacterial activity against Vanomycin-resistant Enterococcus faecium NCTC 12204 assessed as reduction in bacterial growth incubated for 20 hrs by microplate reader method
- Type: functional

{"compound": "O=C(Cc1nnn[nH]1)NC[C@H]1CN(c2ccc(N3CCNCC3)c(F)c2)C(=O)O1", "MIC": "> 128 µg/mL"}
{"compound": "O=C(NC[C@H]1CN(c2ccc(N3CCOCC3)c(F)c2)C(=O)O1)[C@@H]1CCNC1", "MIC": "> 128 µg/mL"}
{"compound": "Cn1cc([N+](=O)[O-])nc1C(=O)NC[C@H]1CN(c2ccc(N3CCOCC3)c(F)c2)C(=O)O1", "MIC": "> 128 µg/mL"}
{"compound": "O=C(NC[C@H]1CN(c2ccc(N3CCOCC3)c(F)c2)C(=O)O1)[C@H]1CCNC1", "MIC": "> 128 µg/mL"}

As a next step, examine the compound that follows.
Which value of MIC has been reported for CN1CCC(C(=O)NC[C@H]2CN(c3ccc(N4CCOCC4)c(F)c3)C(=O)O2)C1 (stereo not given in full) in the records?
> 128 µg/mL
